Test system: COLO 205 colorectal tumor cells
Assay: Tumor cell viability inhibition assay (CellTiter-Glo 2.0, 72 hours)
Assay type: cell-based
Details: Homo sapiens, COLO 205, 72 h, COLO 205 cell viability
VALUE_KIND: IC50

CO[C@@H]1CCN([C@H]2CCc3nc(C)n(CCOc4ccc(Cl)cc4-c4cc(C)nc5c(C(=O)O)csc45)c(=O)c3C2)C[C@@H]1F (single isomer, unassigned)    < 5 µM

Query: Using the record for Cc1cc(-c2cc(Cl)ccc2OCCn2c(C)nc3c(c2=O)C[C@H](N2CC4CCC(C2)C4OC(F)(F)F)CC3)c2scc(C(=O)O)c2n1 (single isomer, unassigned) , report its IC50.
Reply: < 5 µM

Query: Repeat with Cc1cc(-c2cc(Cl)ccc2OCCn2c(C)nc3c(c2=O)CC(N2CCCCC2)CC3)c2ccc(C(=O)O)n2n1 (stereo not drawn)
Reply: < 5 µM

---

pIC50 values by entry
Tested on: COLO 205 colorectal tumor cells
Assay: Tumor cell viability inhibition assay (CellTiter-Glo 2.0, 72 hours)
Assay type: cell-based
Settings: Homo sapiens, COLO 205, 72 h, COLO 205 cell viability
pIC50: −log10 of the molar value.

Solved entries (count: 2):
Cc1cc(-c2cc(Cl)ccc2OCCn2c(C)nc3c(c2=O)CC(N(C)C2CC2)CC3)c2scc(C(=O)NS(=O)(=O)c3ccccn3)c2n1 (single isomer, unassigned) [Compound 286]    > 5.30
Cc1csc([C@@H]2CCCN([C@@H]3CCc4nc(C)n(CCOc5ccc(Cl)cc5-c5cc(C)nc6c(C(=O)O)csc56)c(=O)c4C3)C2)n1 (single isomer, unassigned) [Compound 484]    > 5.30

Now take the following molecule into account.
Query: Quick one: pIC50 of Cc1cc2c(cn1)CCN(C1CCc3nc(C)n(CCOc4ccc(Cl)cc4-c4cc(C)nc5c(C(=O)O)csc45)c(=O)c3C1)C2 (stereo not drawn) [Compound 177] ?
Reply: > 5.30

---

Tested on: COLO 205 colorectal tumor cells
Test: Tumor cell viability inhibition assay (CellTiter-Glo 2.0, 72 hours)
Assay type: cell-based
Details: Homo sapiens, COLO 205, 72 h, COLO 205 cell viability
pIC50: −log10 of the molar value.
Entries and their pIC50 values follow.

COc1cc(CN(CC(F)F)C2CCc3nc(C)n(CCOc4ccc(Cl)cc4-c4cc(C)nc5c(C(=O)O)csc45)c(=O)c3C2)ccn1 (stereo not drawn) [Compound 112]    4.70 to 5.30
Cc1cc(-c2cc(Cl)ccc2OCCn2c(C)nc3c(c2=O)C[C@@H](N2CC[C@H](F)C2)CC3)c2scc(C(=O)NS(C)(=O)=O)c2n1 (single isomer, unassigned) [Compound 347]    > 5.30

With those in mind, consider the next compound.
Query: Requested read-out pIC50, target or system COLO 205 colorectal tumor cells, entry Cc1cc(-c2cc(Cl)ccc2OCCn2c(C)nc3c(c2=O)C[C@@H](N2CCCC[C@@H]2c2cccc(C(F)(F)F)c2)CC3)c2scc(C(=O)O)c2n1 (single isomer, unassigned) [Compound 588]
Reply: 4.70 to 5.30

---

System: COLO 205 colorectal tumor cells
Assay: Tumor cell viability inhibition assay (CellTiter-Glo 2.0, 72 hours)
Format: cell-based
Settings: COLO 205 cell viability
VALUE_KIND: IC50

Example entries begin here.
Cc1cc(-c2cc(Cl)c(=O)[nH]c2OCCn2c(C)nc3c(c2=O)CC(N(C)C2CC2)CC3)c2scc(C(=O)O)c2n1 (single isomer, unassigned) [Compound 234]    > 20 µM
Cc1cc(-c2cc(Cl)ccc2OCCn2c(C(F)(F)F)nc3c(c2=O)CC(N2CCC(OC(F)(F)F)CC2)CC3)c2scc(C(=O)O)c2n1 (single isomer, unassigned) [Compound 631]    > 20 µM
Cc1cc(-c2cc(Cl)ccc2OCCn2c(C)nc3c(c2=O)CC(CN(C)C)(N2CCC(OC(F)(F)F)CC2)CC3)c2scc(C(=O)O)c2n1 (single isomer, unassigned) [Compound 621]    > 20 µM
Cc1cc(-c2cc(Cl)ccc2OCCn2c(C)nc3c(c2=O)CC(N2CCC4(CC2)CN(CC(F)(F)F)CCO4)CC3)c2scc(C(=O)O)c2n1 (single isomer, unassigned) [Compound 518]    < 5 µM
Cc1cc(-c2cc(Cl)ccc2OCCn2c(C)nc3c(c2=O)CC(N2CCC4(CC2)CNCCO4)CC3)c2scc(C(=O)O)c2n1 (single isomer, unassigned) [Compound 528]    > 20 µM

Query: Look up IC50 for this compound: Cc1cc(-c2cc(Cl)ccc2OCCn2c(C)nc3c(c2=O)CC(N(C)C2CC2)CC3)c2scc(C(=O)O)c2n1 (single isomer, unassigned) [Compound 336]
Reply: < 5 µM

Query: Note, next up: Cc1cc(-c2cc(Cl)c(=O)[nH]c2OCCn2c(C)nc3c(c2=O)CC(N(C)CC2CC(F)(F)C2)CC3)c2scc(C(=O)O)c2n1 (single isomer, unassigned) [Compound 238]
Reply: > 20 µM

Query: What do you get for Cc1cc(-c2cc(Cl)ccc2OCCn2c(C)nc3c(c2=O)CC(N2CCCCC2)CC3)c2scc(C(=O)O)c2n1 (single isomer, unassigned) [Compound 250] ?
Reply: < 5 µM

Reference source for all entries: patent US20240246918A1
